- Measured on: T1, His6-gp7 (Bacillus phage GIL01, UniProt Q7WSG2 1-50)
- T1 chain: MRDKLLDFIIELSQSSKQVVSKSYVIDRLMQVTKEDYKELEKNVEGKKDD
- Experimental details: SPR; 300 nM gp7; EMSA/footprint: 80 mM NaCl, 25 mM Tris pH 7.5, 5 mM EDTA, 2 mM DTT, 0.1 mg/ml BSA, 0.05 ug/ul poly(dI-dC), room temp; SPR: 25 mM Tris-HCl pH 7.3, 140 mM NaCl, 5 mM EDTA, 2 mM DTT, 0.1 mg/ml BSA, 0.005% P20, 25 C
- Settings: protein: recombinant; tags: N-terminal His6 (pQE-30); label: 3'-biotin on S1 anchor; 42 bp; 15 nt 5' overhang annealed to S1
Quantity kind: binding result

binder="SPR B12 (dinBox1 double mutant) (dsDNA) DNA 1: GTTACTACTCGAGCGTTAAAAAACTAACAAGCTTTTTATAAGTGTTCGGTTTTTGTA DNA 2: TACAAAAACCGAACACTTATAAAAAGCTTGTTAGTTTTTTAA DNA 3: CGCTCGAGTAGTAAC" result="no binding"
binder="SPR B21 (dinBox1b single mutant) (dsDNA) DNA 1: GTTACTACTCGAGCGTTAAAAAACGAACAAGCGTTTTATAAGTGTTCAGTTTTTGTA DNA 2: TACAAAAACTGAACACTTATAAAACGCTTGTTCGTTTTTTAA DNA 3: CGCTCGAGTAGTAAC" result="no binding"
binder="SPR B11 (dinBox1 single mutant) (dsDNA) DNA 1: GTTACTACTCGAGCGTTAAAAAACGAACAAGCTTTTTATAAGTGTTCGGTTTTTGTA DNA 2: TACAAAAACCGAACACTTATAAAAAGCTTGTTCGTTTTTTAA DNA 3: CGCTCGAGTAGTAAC" result="no binding"
binder="SPR Ns (non-specific; both boxes mutated) (dsDNA) DNA 1: GTTACTACTCGAGCGTTAAAAAACTAACAAGCTTTTTATAAGTATTCAGTTTTTGTA DNA 2: TACAAAAACTGAATACTTATAAAAAGCTTGTTAGTTTTTTAA DNA 3: CGCTCGAGTAGTAAC" result="no binding"
binder="SPR B22 (dinBox1b double mutant) (dsDNA) DNA 1: GTTACTACTCGAGCGTTAAAAAACGAACAAGCGTTTTATAAGTATTCAGTTTTTGTA DNA 2: TACAAAAACTGAATACTTATAAAACGCTTGTTCGTTTTTTAA DNA 3: CGCTCGAGTAGTAAC" result="no binding"
binder="SPR Wt (dinBox1+dinBox1b) (dsDNA) DNA 1: GTTACTACTCGAGCGTTAAAAAACGAACAAGCGTTTTATAAGTGTTCGGTTTTTGTA DNA 2: TACAAAAACCGAACACTTATAAAACGCTTGTTCGTTTTTTAA DNA 3: CGCTCGAGTAGTAAC" result="no binding"

Values compiled from paper PMC4551915.
